assay: In vivo biliary excretion and biliary clearance in rats (literature data, Equations 1 and 2); conditions: rat, in vivo biliary clearance, calculated by Equation 1 from data of Chen and Pollack
endpoint: clearance (mL/min/kg)
Give just the number in mL/min/kg; leave the unit off.

Dear colleague, I am looking for the recorded clearance of the following compound: CC1(C)SSC(C)(C)[C@@H](NC(=O)[C@@H](N)Cc2ccc(O)cc2)C(=O)NCC(=O)N[C@@H](Cc2ccccc2)C(=O)N[C@H]1C(=O)O [[D-pen^2,5]enkephalin]
18.5

---

test system: sandwich-cultured hepatocytes; assay: Cumulative uptake, Biliary Excretion Index and in vitro biliary clearance in 96-hr sandwich-cultured hepatocytes; type: in vitro ADME, rat; details: 96-hr cultured hepatocytes
endpoint: cumulative uptake in standard buffer compared to Ca2+-free buffer

molecule | result
CC1(C)SSC(C)(C)[C@@H](NC(=O)[C@@H](N)Cc2ccc(O)cc2)C(=O)NCC(=O)N[C@@H](Cc2ccccc2)C(=O)N[C@H]1C(=O)O [[D-pen^2,5]enkephalin] | significantly higher
CN(Cc1cnc2nc(N)nc(N)c2n1)c1ccc(C(=O)N[C@@H](CCC(=O)O)C(=O)O)cc1 [methotrexate] | significantly higher
